System: SK-MEL-28 melanoma
ASSAY_OVERVIEW: NCI tumour cell line growth inhibition, 48 h
Below, each entry is listed alongside its reported TGI.

CCNC(=S)N/N=C/c1cc([N+](=O)[O-])ccc1O; > 100 µM
NC(=O)c1sc(-n2cnc3ccccc32)cc1OCc1ccccc1Br; > 25 µM
CC(C)CCC[C@@H](C)[C@H]1CC[C@H]2[C@@H]3CC=C4C[C@@H](C(C(=O)O)C(=O)O)CC[C@]4(C)[C@H]3CC[C@]12C; 0.469 µM
CN(C)C(=N)c1ccccc1; > 100 µM
Cn1cc(C2=C(c3cn(C)c4ncccc34)C(=O)NC2=O)c2ccccc21; > 25 µM

Query: GET /values?readout=TGI&system=SK-MEL-28 melanoma&item= `CCOc1ccc(NC(=O)C(=O)CC(=O)c2c[n+](=O)c3cc(C)c(C)cc3n2[O-])cc1`
Reply: > 100 µM

Query: For `CCCN=C1CCN(Cc2ccccc2)c2ccccc2N1` then?
Reply: 29.3 µM

Query: Queued: `COC1=CC(=O)c2nc(-c3ccncc3)[nH]c2C1=O`
Reply: > 100 µM
